# system_under_test: T1, apelin receptor (AGTRL1) on CHO-K1 cells (UniProt P35414 1-380, limits assumed)
# T1 sequence (looked up): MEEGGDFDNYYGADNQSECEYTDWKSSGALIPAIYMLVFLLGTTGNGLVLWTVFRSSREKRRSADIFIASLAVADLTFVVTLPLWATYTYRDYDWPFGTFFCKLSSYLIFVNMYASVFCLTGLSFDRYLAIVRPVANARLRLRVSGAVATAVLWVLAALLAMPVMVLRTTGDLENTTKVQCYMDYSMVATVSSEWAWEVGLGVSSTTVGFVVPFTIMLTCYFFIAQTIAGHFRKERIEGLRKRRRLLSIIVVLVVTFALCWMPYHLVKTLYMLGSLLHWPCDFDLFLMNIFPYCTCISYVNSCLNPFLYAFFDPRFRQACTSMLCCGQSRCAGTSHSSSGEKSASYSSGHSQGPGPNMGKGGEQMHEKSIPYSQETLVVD
# test_protocol: cell-based or functional assay
endpoint: cAMP EC50 (nM) Exp. 1

[
  {
    "binder": "ELA-K (Fc fusion) DKTHTSPPSPAPEAAGGPSVFLFPPKPKDTLMISRTPEVTCVVVDVSHEDPEVKFNWYVDGVEVHNAKTKPREEQYNSTYRVVSVLTVLHQDWLNGKEYKCKVSNKALPAPIEKTISKAKGQPREPQVYTLPPSREEMTKNQVNLTCLVKGFYPSDIAVEWESNGQPENNYKTTPPVLDSDGSFFLNSTLTVDKSRWQQGNVFSCSVMHEALHNHYTQKSLSLSPGKGGGGSGGGGSGGGGSKLRKHNCLIRRCMPLHSRVPFP",
    "assay_result": 4.76
  },
  {
    "binder": "ELA-B (Fc fusion) DKTHTSPPSPAPEAAGGPSVFLFPPKPKDTLMISRTPEVTCVVVDVSHEDPEVKFNWYVDGVEVHNAKTKPREEQYNSTYRVVSVLTVLHQDWLNGKEYKCKVSNKALPAPIEKTISKAKGQPREPQVYTLPPSREEMTKNQVNLTCLVKGFYPSDIAVEWESNGQPENNYKTTPPVLDSDGSFFLNSTLTVDKSRWQQGNVFSCSVMHEALHNHYTQKSLSLSPGKGGGGSGGGGSGGGGSKLNKHNCLQRRCMPLHSRVPFP",
    "assay_result": 0.349
  },
  {
    "binder": "ELA-L (Fc fusion) DKTHTSPPSPAPEAAGGPSVFLFPPKPKDTLMISRTPEVTCVVVDVSHEDPEVKFNWYVDGVEVHNAKTKPREEQYNSTYRVVSVLTVLHQDWLNGKEYKCKVSNKALPAPIEKTISKAKGQPREPQVYTLPPSREEMTKNQVNLTCLVKGFYPSDIAVEWESNGQPENNYKTTPPVLDSDGSFFLNSTLTVDKSRWQQGNVFSCSVMHEALHNHYTQKSLSLSPGKGGGGSGGGGSGGGGSKLRKHNCATRRCMPLHSRVPFP",
    "assay_result": 0.632
  }
]
